B1: 6YSE (parent)
chain: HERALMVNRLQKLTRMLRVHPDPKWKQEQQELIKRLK

variants of: B1; assay: folding stability dG (cDNA display proteolysis); higher = more stable; conditions: PBS, room temperature
Lab note: anything with folding stability dG at or over 1 kcal/mol counts as YES; the rest go in NO.

HERALMVNRLQKLTRMLFVHPDPKWKQEQQELIKRLK [R18F]	NO

Evaluate HQRALMVNRLQKLTRMLRVHPDPKWKQEQQELIKRLK [E2Q] : folding stability dG at minimum 1 kcal/mol?
YES

Do the same for HERALMVNRLQKLTRQLRVHPDPKWKQEQQELIKRLK [M16Q] please
NO

Do the same for HERALMVNRLQKLTRMLRVHPDPKWKQEWQELIKRLK [Q29W] please
YES

Do the same for HERALMVNRLQKLTRMLRVHPDPKWKQEQQVLIKRLK [E31V] please
NO

Do the same for HERALMVNRLQKLTRMLRAHPDPKWKQEQQELIKRLK [V19A] please
YES
